Assay: Pharmacokinetic profile after single oral, intranasal and intravenous betahistine in beagle dogs, Example 5
Format: in vivo
Settings: both sexes, beagle, dog, in vivo, po, 12 mg/kg, Betahistine Plasma Concentration
property: concentration at 2 h (ng/mL)
Respond with the bare value in ng/mL.

Q) Given `CNCCc1ccccn1` , state its recorded concentration at 2 h.
A) 0.36

###

Assay: Pharmacokinetic profile after single oral, intranasal and intravenous betahistine in beagle dogs, Example 5
Assay type: in vivo
Conditions: both sexes, beagle, dog, in vivo, po, 48 mg/kg, Betahistine Plasma Concentration
property: concentration at 0.333 h (ng/mL)
All answers are understood in ng/mL, so give the number only.

Q) Which concentration at 0.333 h reading was recorded for the molecule `CNCCc1ccccn1` ?
A) 12.9
